biological target: EGFR exon 20 NPG Ins D770_N771 (Ba/F3 cells) (Homo sapiens, UniProt P00533, INS770NPG); construct: expressed in transfected cells; host or cells: Ba/F3 (murine pro-B cells), retroviral transduction, puromycin selection, IL3-independent pool; experiment: Inhibitor activity on EGFR-dependent cell growth (CellTiter-Glo, 72 h), Ba/F3 EGFR exon 20 NPG Ins; assay type: cell-based; details: read-out: BaF3 NPG IC50
Sequence (P00533 with tags, fused parts or gaps INS770NPG): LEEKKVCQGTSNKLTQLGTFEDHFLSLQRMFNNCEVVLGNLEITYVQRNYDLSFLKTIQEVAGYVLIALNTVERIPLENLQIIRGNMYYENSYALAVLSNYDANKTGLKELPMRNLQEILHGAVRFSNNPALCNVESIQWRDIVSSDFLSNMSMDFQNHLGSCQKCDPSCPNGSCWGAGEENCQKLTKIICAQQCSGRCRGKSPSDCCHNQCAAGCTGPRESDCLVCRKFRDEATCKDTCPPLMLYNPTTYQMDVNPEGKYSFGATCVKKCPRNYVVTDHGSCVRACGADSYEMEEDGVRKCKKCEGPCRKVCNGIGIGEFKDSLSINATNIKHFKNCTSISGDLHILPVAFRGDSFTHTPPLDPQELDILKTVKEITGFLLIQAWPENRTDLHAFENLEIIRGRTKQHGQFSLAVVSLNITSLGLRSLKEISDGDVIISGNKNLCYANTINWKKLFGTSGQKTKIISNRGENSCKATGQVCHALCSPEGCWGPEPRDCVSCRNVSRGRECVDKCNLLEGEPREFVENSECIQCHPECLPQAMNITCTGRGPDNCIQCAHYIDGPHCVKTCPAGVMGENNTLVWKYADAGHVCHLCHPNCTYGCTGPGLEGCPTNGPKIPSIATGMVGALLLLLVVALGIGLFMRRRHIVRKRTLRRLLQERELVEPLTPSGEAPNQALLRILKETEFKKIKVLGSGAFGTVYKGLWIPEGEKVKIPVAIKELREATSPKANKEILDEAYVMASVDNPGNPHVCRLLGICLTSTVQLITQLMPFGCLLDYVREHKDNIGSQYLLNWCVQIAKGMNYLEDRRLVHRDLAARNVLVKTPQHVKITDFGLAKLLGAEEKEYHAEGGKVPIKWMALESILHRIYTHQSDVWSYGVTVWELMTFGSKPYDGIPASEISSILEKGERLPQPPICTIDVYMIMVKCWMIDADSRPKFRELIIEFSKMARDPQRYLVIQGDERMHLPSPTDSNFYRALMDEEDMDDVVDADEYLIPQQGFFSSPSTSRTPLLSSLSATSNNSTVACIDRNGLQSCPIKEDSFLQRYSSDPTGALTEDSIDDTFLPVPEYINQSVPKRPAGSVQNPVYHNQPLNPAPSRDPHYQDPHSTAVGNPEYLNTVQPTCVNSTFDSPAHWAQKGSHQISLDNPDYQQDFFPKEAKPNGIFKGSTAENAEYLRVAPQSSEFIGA
pIC50: −log10 of the molar value.
Recorded Endpoint: pIC50

>>> experimental_value("COc1c(F)cccc1Nc1c(-c2ccnc(C)n2)[nH]c2c1C(=O)NCC2C[C@@H]1COCCO1 (single isomer, unassigned) [Compound 605]")
"6.00 to 7.00"
>>> experimental_value("COc1c(Cl)cc(F)cc1Nc1c(-c2ccnc(C)n2)[nH]c2c1C(=O)NC[C@H]2C[C@@H]1COCCO1")
"6.00 to 7.00"
>>> experimental_value("COc1c(F)cccc1Nc1c(-c2ccnc(Nc3nnn(C)c3C)n2)[nH]c2c1C(=O)NCC2")
"< 6.00"

Data request: Quick one: give measured pIC50 for COc1c(Cl)cccc1Nc1c(-c2ccnc(NC(C)=O)n2)[nH]c2c1C(=O)NCC2
Data returned: 6.00 to 7.00

Data request: Please look at this molecule and report its pIC50: COc1c(F)cccc1Nc1c(-c2ccncc2F)[nH]c2c1C(=O)NC[C@H]2CC1COCCO1 (stereo in doubt)
Data returned: > 7.00

Data request: # return recorded pIC50 for entry COc1c(Cl)cc(F)cc1Nc1c(-c2ccnc(C)n2)[nH]c2c1C(=O)NC[C@@H]2C[C@@H]1COCCO1
Data returned: > 7.00
